Values compiled from the supplement of paper PMC4862054.

# Tested on: HDQ-P1
# experiment description: normalised response (% of control), CellTiter-Glo; higher = more viable cells (100 = DMSO, 0 = benzethonium chloride kill control)
# test settings: incubation time: 72 h
Reported normalised response values for the following compounds.
Please state the value followed by its unit.

Use the examples below as a reference point.
compound	system	normalised response
O=C1CCC(N2C(=O)c3ccccc3C2=O)C(=O)N1 (stereo not given) [Thalidomide] (10000 nM)	HDQ-P1	98.2%
CO[C@H]1/C=C\C=C(/C)C(=O)NC2=CC(=O)C(NCCN(C)C)=C(C[C@@H](C)C[C@H](OC)[C@H](O)[C@@H](C)/C=C(\C)[C@@H]1OC(N)=O)C2=O [Alvespimycin] (1000 nM)	HDQ-P1	22.4%
CC(=O)Nc1ccc(C(=O)Nc2ccccc2N)cc1 [Tacedinaline] (1000 nM)	HDQ-P1	98.5%

stdin: Record lookup: for HDQ-P1, what normalised response belongs to O=C(O)c1ccc(-c2c[nH]c3ncc(-c4ccccc4)cc23)cc1C1CCCC1 (10000 nM) ?
stdout: 107%

stdin: Same read-out for NC(=O)Nc1cc(-c2cccc(F)c2)sc1C(=O)N[C@H]1CCCNC1 [AZD7762] (1000 nM) ?
stdout: 28%
